Target: B-Raf (Homo sapiens, UniProt P15056, V600E)
Sequence (P15056 whole entry V600E): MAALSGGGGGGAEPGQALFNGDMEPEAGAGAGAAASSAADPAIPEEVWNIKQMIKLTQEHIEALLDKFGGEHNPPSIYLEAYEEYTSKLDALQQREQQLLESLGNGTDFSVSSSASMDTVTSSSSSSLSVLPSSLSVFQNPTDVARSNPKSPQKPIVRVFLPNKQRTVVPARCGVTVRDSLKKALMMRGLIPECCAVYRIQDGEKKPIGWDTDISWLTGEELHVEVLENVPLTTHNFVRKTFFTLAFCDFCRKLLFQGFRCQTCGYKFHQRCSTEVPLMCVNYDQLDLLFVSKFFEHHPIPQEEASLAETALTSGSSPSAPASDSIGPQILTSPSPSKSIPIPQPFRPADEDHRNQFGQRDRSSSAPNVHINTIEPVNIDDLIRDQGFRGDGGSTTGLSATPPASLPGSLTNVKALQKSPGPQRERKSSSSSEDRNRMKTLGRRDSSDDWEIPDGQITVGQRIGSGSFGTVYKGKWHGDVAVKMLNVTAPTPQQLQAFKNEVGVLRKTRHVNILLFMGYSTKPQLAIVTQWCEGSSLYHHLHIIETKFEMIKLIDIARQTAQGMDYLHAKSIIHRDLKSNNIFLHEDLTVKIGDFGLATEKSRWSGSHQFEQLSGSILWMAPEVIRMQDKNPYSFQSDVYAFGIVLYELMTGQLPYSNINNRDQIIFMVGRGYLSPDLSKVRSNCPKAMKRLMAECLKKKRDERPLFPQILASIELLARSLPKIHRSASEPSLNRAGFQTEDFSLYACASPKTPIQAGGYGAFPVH
Assay: cell-based
Assay type: cell-based
Details: A375 cells, at least three technical repeats
reported.metric: B-Raf ITDRFCETSA activity (in words)

[[record]]
compound = "O=C(Nc1ccc2[nH]nc(-c3ccncc3)c2c1)[C@@H]1CCN(CC(=O)N2CCN(c3ccc(-c4ncccn4)cc3)CC2)C1 [SCH772984]"
system_name = "B-Raf (Homo sapiens, UniProt P15056, V600E)"
recorded_value = "inactive"

[[record]]
compound = "O=C(NOCCO)c1ccc2cncn2c1Nc1ccc(I)cc1F [GDC-0623]"
system_name = "B-Raf (Homo sapiens, UniProt P15056, V600E)"
recorded_value = "inactive"

[[record]]
compound = "C[C@@H](Oc1cc(-c2cnn(C3CCNCC3)c2)cnc1N)c1c(Cl)ccc(F)c1Cl [Crizotinib, crizotinib]"
system_name = "B-Raf (Homo sapiens, UniProt P15056, V600E)"
recorded_value = "inactive"

